// MIC A. baumannii ATCC 19606 lookup, one value per entry
System: Acinetobacter baumannii ATCC 19606
Type: cell-based
experimental_context: ATCC 19606
Where a SMILES comes first, the peptide text is derived from it. Bridges are numbered along the chain shown (N, C = ends). [ ]: non-standard residue; d: D form. The star is where a group is joined. dPhe(3-Cl) = N[C@H](Cc1cccc(Cl)c1)C(=O)O; X2 = CC[C@H](C)CCCCC(=O)*; Octanoyl = CCCCCCCC(=O)*; Dab = NCC[C@H](N)C(=O)O
Just the number in µg/mL, nothing appended.

>>> observed_measurement("CC[C@H](C)CCCCC(=O)N[C@@H](CCN)C(=O)N[C@H](C(=O)N[C@@H](CCN)C(=O)N[C@H]1CCNC(=O)[C@H]([C@@H](C)O)NC(=O)[C@H](CCN)NC(=O)[C@H](CCN)NC(=O)[C@H](CC(C)C)NC(=O)[C@@H](Cc2cccc(Cl)c2)NC(=O)[C@H](CCN)NC1=O)[C@@H](C)O [Compound 19] (X2-[Dab]T[Dab][Dab][Dab][dPhe(3-Cl)]L[Dab][Dab]T; lactam 4-C)")
0.5

Missing value: MIC A. baumannii ATCC 19606, Acinetobacter baumannii ATCC 19606, entry CCCCCCCC(=O)N[C@@H](CCN)C(=O)N[C@H](C(=O)N[C@@H](CCN)C(=O)N[C@H]1CCNC(=O)[C@H](CO)NC(=O)[C@H](CCN)NC(=O)[C@H](CCN)NC(=O)[C@H]([C@@H](C)O)NC(=O)[C@@H](CC(C)C)NC(=O)[C@H](CCN)NC1=O)[C@@H](C)O [Compound 109] (Octanoyl-[Dab]T[Dab][Dab][Dab][dL]T[Dab][Dab]S; lactam 4-C) . Fill in? 16

###

Tested on: Acinetobacter baumannii ATCC 19606
Assay type: cell-based
experimental_context: ATCC 19606
Where a SMILES comes first, the peptide text is derived from it. Bridges are numbered along the chain shown (N, C = ends). [ ]: non-standard residue; d: D form. The star is where a group is joined. dBpa = N[C@H](Cc1ccc(C(=O)c2ccccc2)cc1)C(=O)O; dPhe(2-Cl) = N[C@H](Cc1ccccc1Cl)C(=O)O; Heptanoyl(6-Me) = CC(C)CCCCC(=O)*; Nonanoyl = CCCCCCCCC(=O)*; X2 = CC[C@H](C)CCCCC(=O)*; dDab = NCC[C@@H](N)C(=O)O; Octanoyl = CCCCCCCC(=O)*; Dab = NCC[C@H](N)C(=O)O; Nva = CCC[C@H](N)C(=O)O; X3 = CCCCC(=O)CC(=O)*; X8 = CN(C)CCCCC(=O)*
A collection of molecules and their measured MIC A. baumannii ATCC 19606
Give the quantity in mg/L, number only.

>>> observed_measurement("CC[C@H](C)CCCCC(=O)N[C@@H](CCN)C(=O)N[C@H](C(=O)N[C@@H](CCN)C(=O)N[C@H]1CCNC(=O)[C@H]([C@@H](C)O)NC(=O)[C@H](CCN)NC(=O)[C@H](CCN)NC(=O)[C@H](CC(C)C)NC(=O)[C@@H](Cc2ccc(C(=O)c3ccccc3)cc2)NC(=O)[C@H](CCN)NC1=O)[C@@H](C)O [Compound 29] (X2-[Dab]T[Dab][Dab][Dab][dBpa]L[Dab][Dab]T; lactam 4-C)")
1
>>> observed_measurement("CCCCCCCC(=O)N[C@@H](CCN)C(=O)N[C@H](C(=O)N[C@@H](CCN)C(=O)N[C@H]1CCNC(=O)[C@H]([C@@H](C)O)NC(=O)[C@H](CCN)NC(=O)[C@H](CCN)NC(=O)[C@H]([C@@H](C)O)NC(=O)[C@@H](CC(C)C)NC(=O)[C@H](CCN)NC1=O)[C@@H](C)O [Compound 104] (Octanoyl-[Dab]T[Dab][Dab][Dab][dL]T[Dab][Dab]T; lactam 4-C)")
0.5
>>> observed_measurement("CC[C@H](C)CCCCC(=O)N[C@@H](CCN)C(=O)N[C@H](C(=O)N[C@@H](CCN)C(=O)N[C@H]1CCNC(=O)[C@H]([C@@H](C)O)NC(=O)[C@H](CCN)NC(=O)[C@H](CCN)NC(=O)[C@H](CC(C)C)NC(=O)[C@@H](Cc2ccccc2Cl)NC(=O)[C@H](CCN)NC1=O)[C@@H](C)O [Compound 18] (X2-[Dab]T[Dab][Dab][Dab][dPhe(2-Cl)]L[Dab][Dab]T; lactam 4-C)")
0.5
>>> observed_measurement("CCC[C@@H]1NC(=O)[C@@H](CC(C)C)NC(=O)[C@H](CCN)NC(=O)[C@@H](NC(=O)[C@H](CCN)NC(=O)[C@@H](NC(=O)[C@H](CCN)NC(=O)CCCC[C@@H](C)CC)[C@@H](C)O)CCNC(=O)[C@H]([C@@H](C)O)NC(=O)[C@H](CCN)NC(=O)[C@H](CCN)NC1=O [Compound 73] (X2-[Dab]T[Dab][Dab][Dab][dL][Nva][Dab][Dab]T; lactam 4-C)")
1
>>> observed_measurement("CC[C@H](C)CCCCC(=O)N[C@@H](CCN)C(=O)N[C@H](C(=O)N[C@@H](CCN)C(=O)N[C@H]1CCNC(=O)[C@H]([C@@H](C)O)NC(=O)[C@H](CCN)NC(=O)[C@H](CCN)NC(=O)[C@H]([C@@H](C)O)NC(=O)[C@@H](CC(C)C)NC(=O)[C@H](CCN)NC1=O)[C@@H](C)O [Compound 102] (X2-[Dab]T[Dab][Dab][Dab][dL]T[Dab][Dab]T; lactam 4-C)")
0.5
>>> observed_measurement("CCCCCCCCC(=O)N[C@@H](CCN)C(=O)N[C@H](C(=O)N[C@@H](CCN)C(=O)N[C@H]1CCNC(=O)[C@H]([C@@H](C)O)NC(=O)[C@H](CCN)NC(=O)[C@H](CCN)NC(=O)[C@H](CC(C)C)NC(=O)[C@@H](Cc2ccccc2)NC(=O)[C@H](CCN)NC1=O)[C@@H](C)O [Compound 46] (Nonanoyl-[Dab]T[Dab][Dab][Dab][dF]L[Dab][Dab]T; lactam 4-C)")
1

Record lookup: for Acinetobacter baumannii ATCC 19606, what MIC A. baumannii ATCC 19606 belongs to CC(C)CCCCC(=O)N[C@@H](CCN)C(=O)N[C@H](C(=O)N[C@H](CCN)C(=O)N[C@H]1CCNC(=O)[C@H]([C@@H](C)O)NC(=O)[C@H](CCN)NC(=O)[C@H](CCN)NC(=O)[C@H]([C@@H](C)O)NC(=O)[C@@H](CC(C)C)NC(=O)[C@H](CCN)NC1=O)[C@@H](C)O [Compound 31] ({Heptanoyl(6-Me)}-[Dab]T[dDab][Dab][Dab][dL]T[Dab][Dab]T; lactam 4-C) ? 0.5

Repeat with CC(C)C[C@@H]1NC(=O)[C@@H](Cc2ccccc2)NC(=O)[C@H](CCN)NC(=O)[C@@H](NC(=O)[C@H](CCN)NC(=O)[C@@H](NC(=O)[C@H](CCN)NC(=O)CCCCN(C)C)[C@@H](C)O)CCNC(=O)[C@H]([C@@H](C)O)NC(=O)[C@H](CCN)NC(=O)[C@H](CCN)NC1=O [Compound 2] (X8-[Dab]T[Dab][Dab][Dab][dF]L[Dab][Dab]T; lactam 4-C) 8

Same for CC[C@H](C)CCCCC(=O)N[C@@H](CCN)C(=O)N[C@H](C(=O)N[C@@H](CCN)C(=O)N[C@H]1CCNC(=O)[C@H]([C@@H](C)O)NC(=O)[C@H](CCN)NC(=O)[C@H](CCN)NC(=O)[C@H]([C@@H](C)CC)NC(=O)[C@@H](CC(C)C)NC(=O)[C@H](CCN)NC1=O)[C@@H](C)O [Compound 71] (X2-[Dab]T[Dab][Dab][Dab][dL]I[Dab][Dab]T; lactam 4-C) 1

Also check CCCCC(=O)CC(=O)N[C@@H](CCN)C(=O)N[C@H](C(=O)N[C@@H](CCN)C(=O)N[C@H]1CCNC(=O)[C@H]([C@@H](C)O)NC(=O)[C@H](CCN)NC(=O)[C@H](CCN)NC(=O)[C@H](CC(C)C)NC(=O)[C@@H](Cc2ccccc2)NC(=O)[C@H](CCN)NC1=O)[C@@H](C)O [Compound 4] (X3-[Dab]T[Dab][Dab][Dab][dF]L[Dab][Dab]T; lactam 4-C) 2

###

Tested on: Pseudomonas aeruginosa ATCC 27853
Assay type: cell-based
experimental_context: ATCC 27853
Where a SMILES comes first, the peptide text is derived from it. Bridges are numbered along the chain shown (N, C = ends). [ ]: non-standard residue; d: D form. The star is where a group is joined. X7 = Cc1ccc(Oc2ccc(C(=O)*)cc2)cc1; X2 = CC[C@H](C)CCCCC(=O)*; Octanoyl = CCCCCCCC(=O)*; Dab = NCC[C@H](N)C(=O)O; X3 = CCCCC(=O)CC(=O)*; X8 = CN(C)CCCCC(=O)*
recorded_endpoint: MIC P. aeruginosa ATCC 27853 (µg/mL)
Please respond with the number in µg/mL and leave the unit unwritten.

>>> observed_measurement("CCCCC(=O)CC(=O)N[C@@H](CCN)C(=O)N[C@H](C(=O)N[C@@H](CCN)C(=O)N[C@H]1CCNC(=O)[C@H]([C@@H](C)O)NC(=O)[C@H](CCN)NC(=O)[C@H](CCN)NC(=O)[C@H](CC(C)C)NC(=O)[C@@H](Cc2ccccc2)NC(=O)[C@H](CCN)NC1=O)[C@@H](C)O [Compound 4] (X3-[Dab]T[Dab][Dab][Dab][dF]L[Dab][Dab]T; lactam 4-C)")
2
>>> observed_measurement("CC[C@H](C)CCCCC(=O)N[C@@H](CCN)C(=O)N[C@H](C(=O)N[C@@H](CCN)C(=O)N[C@H]1CCNC(=O)[C@H]([C@@H](C)O)NC(=O)[C@H](CCN)NC(=O)[C@H](CCN)NC(=O)[C@H]([C@@H](C)CC)NC(=O)[C@@H](Cc2ccccc2)NC(=O)[C@H](CCN)NC1=O)[C@@H](C)O [Compound 47] (X2-[Dab]T[Dab][Dab][Dab][dF]I[Dab][Dab]T; lactam 4-C)")
2

What does the data say about its MIC P. aeruginosa ATCC 27853? Entry: Cc1ccc(Oc2ccc(C(=O)N[C@@H](CCN)C(=O)N[C@H](C(=O)N[C@@H](CCN)C(=O)N[C@H]3CCNC(=O)[C@H]([C@@H](C)O)NC(=O)[C@H](CCN)NC(=O)[C@H](CCN)NC(=O)[C@H](CC(C)C)NC(=O)[C@@H](Cc4ccccc4)NC(=O)[C@H](CCN)NC3=O)[C@@H](C)O)cc2)cc1 [Compound 9] (X7-[Dab]T[Dab][Dab][Dab][dF]L[Dab][Dab]T; lactam 4-C) 4

Would you mind doing CC[C@H](C)CCCCC(=O)N[C@@H](CCN)C(=O)N[C@H](C(=O)N[C@@H](CCN)C(=O)N[C@H]1CCNC(=O)[C@H]([C@@H](C)O)NC(=O)[C@H](CCN)NC(=O)[C@H](CCN)NC(=O)[C@H]([C@@H](C)O)NC(=O)[C@@H](CC(C)C)NC(=O)[C@H](CCN)NC1=O)[C@@H](C)O [Compound 102] (X2-[Dab]T[Dab][Dab][Dab][dL]T[Dab][Dab]T; lactam 4-C) as well? 1

Same question, CC(C)C[C@@H]1NC(=O)[C@@H](Cc2ccccc2)NC(=O)[C@H](CCN)NC(=O)[C@@H](NC(=O)[C@H](CCN)NC(=O)[C@@H](NC(=O)[C@H](CCN)NC(=O)CCCCN(C)C)[C@@H](C)O)CCNC(=O)[C@H]([C@@H](C)O)NC(=O)[C@H](CCN)NC(=O)[C@H](CCN)NC1=O [Compound 2] (X8-[Dab]T[Dab][Dab][Dab][dF]L[Dab][Dab]T; lactam 4-C) this time 1

Input CCCCCCCC(=O)N[C@@H](CCN)C(=O)N[C@H](C(=O)N[C@@H](CCN)C(=O)N[C@H]1CCNC(=O)[C@H]([C@@H](C)O)NC(=O)[C@H](CCN)NC(=O)[C@H](CCN)NC(=O)[C@H](CC(C)C)NC(=O)[C@@H](CC(C)C)NC(=O)[C@H](CCN)NC1=O)[C@@H](C)O [Compound 78] (Octanoyl-[Dab]T[Dab][Dab][Dab][dL]L[Dab][Dab]T; lactam 4-C) 1
